molecular target: HIV-1 TAR RNA (biotinylated TAR 27-mer); format: binding; conditions: read-out: KD
Where no end group is shown, it is not given here.
// reported Kd for each item listed
observation.type: Kd (µM)

INSERT INTO results (substance, assay_target, observation_type, recorded_number) VALUES
  ('RRRTPR (also: sidechain bridge or staple (positions not given here)) [TB-CP-6.9a, cyclic peptide (11-mer]', 'HIV-1 TAR RNA (biotinylated TAR 27-mer)', 'Kd', 3.2),
  ('PRQRTPRGQ (also: sidechain bridge or staple (positions not given here)) [TB-CP-6.7a, two terminal cysteines cross-linked via a methylene bridge]', 'HIV-1 TAR RNA (biotinylated TAR 27-mer)', 'Kd', 23);

----------
biological target: HIV-1 TAR RNA (27-mer); assay type: binding
Where no end group is shown, it is not given here.
observation.type: Kd (µM)

INSERT INTO results (substance, unit_text, recorded_number) VALUES
  ('RRRTPR (also: sidechain bridge or staple (positions not given here)) [TB-CP-6.9a, cyclic peptide (11-mer]', 'µM', 5);

----------
biological target: HIV-1 TAR RNA (27-mer); format: binding; details: pH 7.5
pKd: −log10 of the molar value. Where no end group is shown, it is not given here.
observation.type: pKd

INSERT INTO measurements (substance, assay_target, recorded_number) VALUES
  ('RRRTPR (also: sidechain bridge or staple (positions not given here)) [TB-CP-6.9a, cyclic peptide (11-mer]', 'HIV-1 TAR RNA (27-mer)', 5.28);

----------
target: HIV-1 TAR RNA (biotinylated TAR 27-mer); type: binding; settings: pH 7.5; read-out: KD (apparent)
pKd: −log10 of the molar value. Where no end group is shown, it is not given here.
observation.type: pKd

INSERT INTO assay_data (substance, observation_type, recorded_number) VALUES
  ('PRQRTPRGQ (also: sidechain bridge or staple (positions not given here)) [TB-CP-6.7a, two terminal cysteines cross-linked via a methylene bridge]', 'pKd', 4.66),
  ('RRRTPR (also: sidechain bridge or staple (positions not given here)) [TB-CP-6.9a, cyclic peptide (11-mer]', 'pKd', 5.44);
